Assignment: determine reported melting point for the given molecules.
Structures can show the parent of a compound that is named as a salt.

c1ccc(OCCSCc2nnc(-c3ccc(OCCN4CCCCCC4)cc3)o2)cc1 [Example 86]	40 °C
O=C1N(CCN2CCCC2)CCN1c1ccc(-c2nnc(CSCCOc3ccccc3)o2)cc1 [Example 257]	125 to 129 °C
c1ccc(OCCSCc2nnc(-c3ccc(OCCCCN4CCCCCC4)cc3)o2)cc1 [Example 89]	35 to 38 °C

Please state melting point for every molecule in the list that follows.
1. CN(C)CCCOc1ccc(-c2nnc(CSCCOc3ccc(OC(F)(F)F)cc3)o2)cc1 [Example 274]
2. CC(C)N(CCCOc1ccc(-c2nnc(CSCCOc3ccccc3)o2)cc1)C(C)C [Example 261]
3. CN(C)CCCOc1ccc(-c2nnc(CSCCCOc3ccccc3)o2)cc1.O=C(O)C(=O)O [Example 49]

["92.5 to 93.5 °C", "30 to 33 °C", "131 to 133 °C"]

Please state melting point for every molecule in the list that follows.
1. c1ccc(OCCSCc2nnc(-c3ccc(OCCCN4CCC4)cc3)o2)cc1 [Example 263]
2. CN1CCCC1CCOc1ccc(-c2nnc(CSCCOc3ccccc3)o2)cc1 (centres unmarked) [Example 96]
3. c1ccc(OCCSCc2nnc(-c3ccc(OCCN4CCCC4)cc3)o2)cc1 [Example 76]
4. CN(C)CCCCCCNC(=O)c1ccc(-c2nnc(CSCCOc3ccccc3)o2)cc1 [Example 57]

["60 °C", "46 to 50 °C", "65 °C", "86 to 93 °C"]

Please state melting point for every molecule in the list that follows.
1. c1ccc(OCCSCc2nnc(-c3ccc(OCCN4CCOCC4)cc3)o2)cc1 [Example 74]
2. CN(C)CCCOc1ccc(-c2nnc(CSCCOc3ccccc3)o2)cc1F.O=C(O)/C=C\C(=O)O [Example 287]
3. CN(C)CCCOc1ccc(-c2nnc(CSCCOc3cccc4ccccc34)o2)cc1 [Example 278]
4. c1ccc(OCCSCc2nnc(-c3ccc(OCCCCN4CCOCC4)cc3)o2)cc1 [Example 92]
5. CN1CCCC(COc2ccc(-c3nnc(CSCCOc4ccccc4)o3)cc2)C1.O=C(O)/C=C\C(=O)O (centres unmarked) [Example 290]

1. 70 to 72 °C
2. 70 to 72 °C
3. 101 to 102 °C
4. 64 to 67 °C
5. 115 to 116 °C

Please state melting point for every molecule in the list that follows.
1. CN(C)CCCOc1ccc(-c2nnc(CCOCCOc3ccccc3)o2)cc1 (as salt: oxalate) [Example 215]
2. c1ccc(OCCSCc2nnc(-c3ccc(OCCCCN4CCCC4)cc3)o2)cc1 [Example 80]

["116 to 118 °C", "45 °C"]

* * *

ASSAY_ENDPOINT: melting point

Look over these answered cases.
C(=C\c1ccc(-c2cnc(CSCCOc3ccccc3)o2)cc1)/CN1CCCC1	73 to 75 °C
CN(C)CCCOc1ccc(-c2nnc(-c3ccc(-c4ccccc4)cc3)o2)cc1	130 to 132 °C
CN(C)CCCOc1ccc(-c2nnc(CSCCOc3ccccc3)o2)cc1	70 °C
CN(C)CCCOc1ccc(-c2nnc(CSCCCCOc3ccccc3)o2)cc1	69 to 73 °C
CN(C)CCCOc1ccc(-c2nnc(CSCCOc3ccccc3)o2)cn1	69 to 70 °C

Please state melting point for every molecule in the list that follows.
1. N#CCCCOc1ccc(-c2nnc(CSCCOc3ccccc3)o2)cc1
2. CN(C)CCCCNC(=O)c1ccccc1-c1nnc(CSCCOc2ccccc2)o1
3. COc1ccc(OCCSCc2nnc(-c3ccc(OCCCN(C)C)cc3)o2)cc1
4. CN(C)CCOc1ccc(-c2nnc(CSCCOc3ccccc3)o2)cc1
5. c1ccc(OCCSCc2nnc(-c3ccc(OCCN4CCCCC4)cc3)o2)cc1
6. O=C(Nc1ccc(-c2nnc(CSCCOc3ccccc3)o2)cc1)N1CCCC1

1: 67 to 68 °C; 2: 62 to 65 °C; 3: 77.5 to 78 °C; 4: 62 to 64 °C; 5: 70 °C; 6: 184 to 185 °C

Please state melting point for every molecule in the list that follows.
1. CN(C)CCCOc1c(Cl)cc(-c2nnc(CSCCOc3ccccc3)o2)cc1Cl.O=C(O)/C=C/C(=O)O
2. CN(C)CCCCCCCOc1ccc(-c2nnc(CSCCOc3ccccc3)o2)cc1

["95 to 99 °C", "39 to 40 °C"]
